Where do the numbers come from? From PubChem BioAssay AID1421.

target: Prostaglandin E2 receptor EP2 subtype (Homo sapiens) (UniProt P43116); assay: EP2 receptor modulators, dose response, cell-based, human EP2, PGE2 EC50 shift (AID 1421); conditions: EP2-expressing cells, PGE2 EC50 shift by compound; measured here: PGE2 EC50 at 6.7 uM compound
Sequence (P43116 whole entry, looked up): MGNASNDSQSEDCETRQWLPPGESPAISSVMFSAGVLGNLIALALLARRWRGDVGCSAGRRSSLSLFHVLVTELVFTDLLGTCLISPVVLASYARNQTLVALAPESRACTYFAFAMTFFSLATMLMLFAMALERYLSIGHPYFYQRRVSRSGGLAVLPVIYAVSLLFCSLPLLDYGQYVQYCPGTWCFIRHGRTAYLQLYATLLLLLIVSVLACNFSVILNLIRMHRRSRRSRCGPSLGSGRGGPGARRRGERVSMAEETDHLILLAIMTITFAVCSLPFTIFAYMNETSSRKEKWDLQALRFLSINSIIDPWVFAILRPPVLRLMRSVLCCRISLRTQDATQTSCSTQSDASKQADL
Threshold rule: PGE2 EC50 with compound greater than or equal to 0.9 nM is y; below that, n.

>>> print(df.to_string())
                                 item_smiles  assigned_category
 0             FC(F)(F)c1nc(=S)c2ccccc2[nH]1                  y
 1      Clc1ccc(-c2nn3c(-c4ccccc4)nnc3s2)cc1                  y
 2            Cc1cc(C)n(CCOc2ccc(Cl)cc2Cl)n1                  n
 3       Cc1noc(C)c1CSc1ncnc2sc3c(c12)CCCCC3                  y
 4       C1=C(c2ccccc2)Nc2ccccc2N=C1c1ccccc1                  y
 5  Clc1ccc(Cl)c(-c2ccc(/C=N/c3ncn[nH]3)o2)c1                  y
 6   CN(C)c1nccc(N(Cc2ccccc2)Cc2ccccc2)c1C#N                  y
 7     CCOC(=O)c1c(C=O)c(C)n(Cc2ccccc2Cl)c1C                  y
 8  N#Cc1c(-c2c(Cl)cccc2Cl)noc1/C=C/Nc1ccc(C(=O)O)cc1                  n
 9  C(=N\N1CCN(C2c3ccccc3-c3ccccc32)CC1)/c1cccnc1                  y
10  O=c1[nH]c2ccc(Cl)cc2c(-c2ccccc2)c1N1CCN(c2ccccn2)CC1                  y
11                   Cc1ccccc1Nc1cccc2nonc12                  n
12  COc1ccccc1NC(=O)CSc1nnc(Cn2nnc(-c3ccccc3)n2)n1-c1ccccc1                  n
